# System: SN12C renal
# assayComment: NCI tumour cell line growth inhibition, 48 h
observedProperty: TGI

Inquiry: Entry Nc1cccc(-c2cc(=O)c3cc4c(cc3[nH]2)OCO4)c1 has what TGI?
Reply text: > 100 µM

Inquiry: I have this compound here, CNC(=S)N/N=C/C(C)=N/NC(=S)NC , and I need its recorded TGI.
Reply text: > 100 µM

Inquiry: So what does the record say about TGI for O=C(/C=C/c1ccc(O)c(O)c1)N1CCN(c2ccc(Cl)cc2)CC1 ?
Reply text: 42.2 µM

Inquiry: Param item = CC1NOC(=O)C1N=Nc1cccc(Cl)c1 (configuration not stated) ; retrieve measured TGI.
Reply text: > 100 µM

Inquiry: So what's the measured TGI for this one? COc1cc2ncn(-c3cc(OCc4ccccc4C(F)(F)F)c(C(N)=O)s3)c2cc1OC
Reply text: > 25 µM

Inquiry: Would you mind telling me what TGI value was observed for O=C(/C=C/c1ccc(OCc2ccccc2)cc1)NCc1ccc(C(=O)NCCc2ccccc2)cc1 ?
Reply text: > 100 µM

Inquiry: What value of TGI has been reported for the following compound? COc1cc2c(c(OC)c1OC)-c1cc(I)c(O)cc1[C@@H](NC(C)=O)CC2
Reply text: > 100 µM

Inquiry: I would be grateful if you could share the reported TGI for Nc1nc(Sc2ccc([N+](=O)[O-])c3nonc23)c2[nH]cnc2n1 .
Reply text: 27.2 µM

Inquiry: If you can, please state the reported TGI value of CC(C)c1cc(=O)[nH]c2cc(N)ccc12 .
Reply text: > 100 µM

Inquiry: Which TGI is reported for this compound? Clc1ccc2c(NCCNc3nc(N4CCOCC4)nc4ccccc34)ccnc2c1
Reply text: 7.69 µM

Inquiry: Quick check: TGI of O=c1cc(-c2ccccc2)oc2ccc(Cl)cc12 ?
Reply text: > 100 µM

Inquiry: Give its TGI value. Item: Cc1ccc(C2=CC(=O)/C(=C\C(=O)c3ccc(Br)cc3)O2)c(C)c1
Reply text: > 21.8 µM

Inquiry: Report TGI for CCOC(=O)C1=C(O)CC(=O)N=C1N1CCCC1 please.
Reply text: > 100 µM

Inquiry: Sample CCOC(=O)C(O)(CC1=NC(C(=O)OC)(C(=O)OC)C(c2cccc(C=O)c2)O1)C(=O)OCC (configuration not stated) — what was its TGI?
Reply text: > 100 µM

Inquiry: What value of measured TGI is listed for O=c1[nH]c2cc(Cl)ccc2nc1/C(=N\Nc1ccccc1)C(O)c1ccc2c(c1)OCO2 (configuration not stated) ?
Reply text: > 100 µM

Inquiry: Fill in the blank: the reported TGI of CCSC[C@@H]1C[C@](O)(c2ccccc2)[C@@H](c2ccccc2)O1 is ____.
Reply text: > 100 µM

Inquiry: If you can, please state the reported TGI value of O=C(Nc1cccc(-n2ccc3c(NC(=O)c4ccccc4)ncnc32)c1)Nc1ccc(Cl)c(C(F)(F)F)c1 .
Reply text: 9.86 µM

Inquiry: Which measured TGI value corresponds to CN(CCN)[C@H](CSSC[C@@H](c1ccccc1O)N(C)CCN)c1ccccc1O ?
Reply text: 23.2 µM

Inquiry: # get_value(readout='TGI', item= CCCCCCCCCCCCCCCCCc1nc(Cl)nc(Cl)c1Cl )
Reply text: > 100 µM

Inquiry: For the compound CC(=O)OC1CCn2c1nc1cc([N+](=O)[O-])c(C)cc12 (configuration not stated) , what TGI is on record?
Reply text: > 100 µM

Inquiry: Looking for the measured TGI of O=S(=O)(c1ccccc1)N1CCCC(c2ccccc2)CC1 (configuration not stated) , can you help?
Reply text: > 100 µM

Inquiry: Given the compound COc1cccc(C2CC(=O)Nc3c2c(C)nn3-c2nc3ccccc3[nH]2)c1OC (configuration not stated) , what is its reported TGI?
Reply text: 48.3 µM

Data credit: PubChem BioAssay (NCI)
